PROTOCOL_DETAILS: Population pharmacokinetic modeling (NONMEM) of intravenous colistin sulfate from plasma concentrations in critically ill patients
Type: in vivo, human
ASSAY_CONDITIONS: human, plasma, iv, base model (Table S1); read-out: TVCL (converted)
Counter-ions that a name gives are not always drawn. Positions of bridges follow the written chain, without caps; N, C: chain ends. Non-standard residues stand in square brackets, D forms with d. Residues, ends and D or L forms follow the SMILES beside them. *: point of attachment. X1 = CC[C@H](C)CCCCC(=O)*; Dab = NCC[C@H](N)C(=O)O
ASSAY_ENDPOINT: clearance (mL/min)
Answers are plain numbers, in mL/min.

Give the reported value of clearance for this record: CC[C@H](C)CCCCC(=O)N[C@@H](CCN)C(=O)N[C@H](C(=O)N[C@@H](CCN)C(=O)N[C@H]1CCNC(=O)[C@H]([C@@H](C)O)NC(=O)[C@H](CCN)NC(=O)[C@H](CCN)NC(=O)[C@H](CC(C)C)NC(=O)[C@@H](CC(C)C)NC(=O)[C@H](CCN)NC1=O)[C@@H](C)O [colistin sulfate] (X1-[Dab]T[Dab][Dab][Dab][dL]L[Dab][Dab]T; lactam 4-C)
27.2
